measurement.notes: Oral bioavailability in cynomolgus monkey at 2 mg/kg
Assay type: ADME, organism-based, Macaca fascicularis
measurement.parameters: in vivo
test.readout: bioavailability

                            smiles_notation     test_readout  result
0  Cc1cc2c(c(Oc3cc(NS(=O)(=O)c4ccc(Cl)cc4)ccc3F)n1)C(=O)N(C(C)C)C2=O  bioavailability     29%

###

measurement.notes: Plasma protein binding in human
Assay type: ADME, cell-free
measurement.parameters: read-out: PPB
test.readout: fraction unbound

>>> print(df.to_string())
                            smiles_notation  result
0  Cc1cc2c(c(Oc3cc(NS(=O)(=O)c4ccc(Cl)cc4)ccc3F)n1)C(=O)N(C(C)C)C2=O  < 0.01

###

measurement.notes: Intrinsic clearance in rat liver microsomes
Assay type: ADME
measurement.parameters: read-out: CLH
microsomal CLint under 60 µL/min/mg gets criterion met, anything at or over 60 µL/min/mg gets criterion not met.

>>> print(df.to_string())
                            smiles_notation  assigned_category
0  Cc1cc2c(c(Oc3ccc(C)c(NS(=O)(=O)c4ccc(Cl)cc4)c3)n1)C(=O)N(C(C)C)C2=O  criterion not met
1  Cc1cc2c(c(Oc3cc(NS(=O)(=O)c4ccc(Cl)cc4)ccc3F)n1)C(=O)N(C(C)C)C2=O  criterion not met
2  Cc1cc2c(c(Oc3cccc(N(C)S(=O)(=O)c4ccc(Cl)cc4)c3)n1)C(=O)N(C(C)C)C2=O  criterion not met
3  Cc1cc2c(c(Oc3cccc(NS(=O)(=O)c4ccc(Cl)cc4)c3)n1)C(=O)N(C(C)C)C2=O  criterion not met
4  Cc1cc2c(c(Oc3cccc(NC(=O)c4ccc(Cl)cc4)c3)n1)C(=O)N(C(C)C)C2=O      criterion met
5  Cc1cc2c(c(Oc3cc(NS(=O)(=O)c4ccc(Cl)cc4)ccc3Cl)n1)C(=O)N(C(C)C)C2=O      criterion met
6  O=C1c2cc(C3CC3)nc(Oc3cccc(NS(=O)(=O)c4ccc(Cl)cc4)c3)c2C(=O)N1C1CC1  criterion not met

###

measurement.notes: Intrinsic clearance in human liver microsomes
Type: ADME
measurement.parameters: read-out: CLH
test.readout: microsomal CLint (µL/min/mg)

>>> df
                            smiles_notation  unit_of_measure  number
0  O=C1c2cc(C3CC3)nc(Oc3cccc(NS(=O)(=O)c4ccc(Cl)cc4)c3)c2C(=O)N1C1CC1        µL/min/mg      27

###

measurement.notes: Clearance in cynomolgus monkey at 0.5 mg/kg, iv
Format: ADME, organism-based, Macaca fascicularis
Design: dose 0.5 mg/kg, route intravenous
measurement.parameters: in vivo
test.readout: clearance (mL/min/kg)

In [3]: df
Out[3]:
                            smiles_notation  test_readout  number
0  Cc1cc2c(c(Oc3cc(NS(=O)(=O)c4ccc(Cl)cc4)ccc3F)n1)C(=O)N(C(C)C)C2=O     clearance     7.5

###

measurement.notes: Clearance in rat at 0.5 mg/kg, iv
Format: ADME, organism-based
Set-up: dose 0.5 mg/kg, route intravenous
measurement.parameters: in vivo
test.readout: clearance (mL/min/kg)

                            smiles_notation  test_readout  unit_of_measure  number
0  Cc1cc2c(c(Oc3cc(NS(=O)(=O)c4ccc(Cl)cc4)ccc3F)n1)C(=O)N(C(C)C)C2=O     clearance        mL/min/kg    11.8
